# apparent KD of MS2 coat protein per entry
test system: MS2 coat protein; test: apparent KD of MS2 coat protein; designed switch direction (-1 OFF switch, 1 ON switch): 1; higher = weaker reporter binding; settings: Eterna round: R95; input ligand: FMN 200 uM

Worked cases, apparent KD of MS2 coat protein given:
Sequence Content | System | Measured Metric | Data Value
GGUCCAGCCUGAGCUGGACAAAAGCAUGUACAUGAGGAUCACCCAUGUCAUGUACAGGCUUUUUGCUCGUCUUAAAA [JL mod - D87 - 7] (puzzle: Sensor for hsa-mir-208a) | MS2 coat protein | apparent KD of MS2 coat protein | 622 nM
UACAAUCUAUCUGAGGAUAUCAUGAAAAAAACAUGAGGAUCACCCAUGUGCAGGAAAACUGCAUAUGAGAAGGCAGAUAGAUUGC [salish99_SS2_r3_008] (puzzle: Same State 2) | MS2 coat protein | apparent KD of MS2 coat protein | 34.1 nM
AAGAAGACGAACAAGGAUAUGUCAAAGGAAACAUGAGGAUCACCCAUGUAGAGAUUGGAAAAGAAACAGAAGGUGUACAGAAAGA [JR_SS2_Sub005] (puzzle: Same State 2) | MS2 coat protein | apparent KD of MS2 coat protein | 24.8 nM
CGUCCGGCCUGUGCUGGCCGGAAGCAUGUACAUGAGGAUCACCCAUGUUCAUGUGCUGGCUUUUUGCUCGUCUUGUG [salish99_mir208a_011] (puzzle: Sensor for hsa-mir-208a) | MS2 coat protein | apparent KD of MS2 coat protein | 13.9 nM
GUGGCCCAGGCACAGGAUAUGUUUCUCGUAACAUGAGGAUCACCCAUGUGCCUAUGAGAUUUAAUGCAGAAGGGUGCACGCCACU [Mat - Same State 2 - Mod of UCT - D79] (puzzle: Same State 2) | MS2 coat protein | apparent KD of MS2 coat protein | 24.1 nM

GET /value?item= GUGCGGCUGCCACAGGAUAUACGUGGAUCGACAUGAGGAUCACCCAUGUAUAUCCUAAUAAUUGCGUAGAAGGGUGGUCAGCCGG [Anzaenenes] (puzzle: Same State 2) &field=apparent KD of MS2 coat protein returns 143 nM

The sequence listed as UGUCCAGCCUGAGCUGGACAAAAGCAUGUACAUGAGGAUCACCCAUGUUCAUGUACAAGCUUUUUGCUCGUCUUAGG [salish99_208a_r3_066] (puzzle: Sensor for hsa-mir-208a) shows apparent KD of MS2 coat protein equal to 695 nM

Looking up UACAAUCUAUCUGAGGAUAUCAUGAAGAAAACAUGAGGAUCACCCAUGUGCAGGAUAACUGCAAAUGAGAAGGCAGAUAGAUUGG [Mat - Same State 2 - Mod - D4] (puzzle: Same State 2) , I found its apparent KD of MS2 coat protein recorded as 12.9 nM

The reported value for AGUCCAGCAUAAGCUGGACAAAAGCAUGUACAUGAGGAUCACCCAUGUUCAUGUACAAGCUUUUUGCAAGUCAAAAU [Mat - hsa-mir-208a - Mod of JL - 82] (puzzle: Sensor for hsa-mir-208a) in terms of apparent KD of MS2 coat protein is 374 nM

# sequence UUUAGUUGCGCGCAGGAUAUGUAUUAAUAUACAUGAGGAUCACCCAUGUGAGAUCGAAUAGAUCUGCAGAAGGGCGAAUCGCGAC [Laonerce - 27] (puzzle: Same State 2) ; its apparent KD of MS2 coat protein = 52.7 nM

###

apparent KD of MS2 coat protein overview
tested on: MS2 coat protein; assay: apparent KD of MS2 coat protein; designed switch direction (-1 OFF switch, 1 ON switch): -1; higher = weaker reporter binding; conditions: input ligand: none
Write down the numeric answer in nM and omit the unit.

Data point: AUUAAUGUCAAAGGAUAUCAGCACGUUUAGUGCUGAGAAGGUUGAACAUGAGGAUCACCCAUGUAGAUCAUUAAUAAUUUAAUU [ENG1/10-B1] (Eterna round: R96, puzzle: Exclusion NG 1) ; apparent KD of MS2 coat protein = 18.2

Entry AGCGUGGAGACAGGAUAUGAGAAUAGAUAGAACUCAGAAGGGUCACAUGAGGAUCACCCAUGUAAAGUCUUGAGGCUGAGUGGU [Prohibition 6 - Jieux - Exclusion NG 1] (Eterna round: R96, puzzle: Exclusion NG 1) , apparent KD of MS2 coat protein reported as 45.2

###

system: MS2 coat protein; assay: apparent KD of MS2 coat protein, switch ON state; designed switch direction (-1 OFF switch, 1 ON switch): 1; higher = weaker reporter binding; settings: FMN input: 0 or 200 uM; Eterna round: R93 (includes R88 designs)
Reported apparent KD of MS2 coat protein values for a set of sequences
Answer format: numeric, nM implied, no suffix.

Before answering, review these 3 worked examples.
Sequence Content | Quantity Unit | apparent KD of MS2 coat protein
AACCAACAUGAGGAUCACCCAUGUCAACCCAAGGCAGGAUAUGCGAGAAUAACAAUGGGAGCAGAAGGGCCGACCU [ss1-3] | nM | 40
GUGAGACAUGAGGAUCACCCAUGUACGCGUCAGCAAGGAUAUGGGAAUAAAAGACAGAGACCAGAAGGUGCUGUUG [Arzaerri] | nM | 22.9
UGUAGGAAGAGAGAGGAUAUCCAAAGGAAAACAUGAGGAUCACCCAUGUAAAAGGUAGGAAAUUGGGAGAAGGCUCAAGAGAGAG [salish99-ss2-082] | nM | 29

Just so you know, measured apparent KD of MS2 coat protein for AACAAUCUAUCUGAGGAUAUGUGUCGAAAGACAUGAGGAUCACCCAUGUGAAAACAUGAAAAGACACAGAAGGCAGAUAGAUUGA [SS2: 1154] came out at 40.2

Noted for CGUGAACAUGAGGAUCACCCAUGUAGCGGGAGACAAGGAUAUGGGAGGCGAAAUCGCGGAUCAGAAGGUGUAAGCG [Zace] : its apparent KD of MS2 coat protein reads 16.4

Looking up CGGAAGGAGAGAGAGGAUAUCCAAAGGAAAACAUGAGGAUCACCCAUGUAGAAGGUAGGAAAUUGGGAGAAGGCUCAACAGAGAG [salish99-ss2-130] , I found its apparent KD of MS2 coat protein recorded as 19.1

Sure, the documented apparent KD of MS2 coat protein for AGAAUAAAAAGAGAGGAUAUCCAUAAGAAAACAUGAGGAUCACCCAUGUGAAAGAUAAUAAGAUGGGAGAAGGCUCAAAAUAAGA [Topaz 46] is 20.3

sequence AAUAAACAUGAGGAUCACCCAUGUAGAAACAUGGGAGGAUAUACAAAGACGAAAGUCAAAGUAGAAGGCCUAAUAA [Mat - Same State 1 - Mod - D167] , apparent KD of MS2 coat protein observed: 92.7

Query AAAACACAUGAGGAUCACCCAUGUAGAAAUACGGGAGGAUAUGCGAAAACGAAAGACAAAGUAGAAGGCCUAAAAG [saturn 8] yields apparent KD of MS2 coat protein of 35.9

For reference, reported apparent KD of MS2 coat protein for GAAAAACAUGAGGAUCACCCAUGUAGAAAAAUGGGAGGAUAUACAAAGACGAAAGUCAAAGUAGAAGGCCUGAAAG [same state 77% mat/eli mod] stands at 24.8

Looking up GGAGCCGACACUGAGGAUAUUCAUAUUAAAACAUGAGGAUCACCCAUGUAGGCCAGAAGGCCUUGGGAGAAGGCAGGCCGGCUCG [Inxebi] , I found its apparent KD of MS2 coat protein recorded as 19.3

Form: sequence = AAAAAACAUGAGGAUCACCCAUGUAAUACAACAUCAGGAUAUUGGUUUUACUAUGUAUUACAAGAAGGGAUGAAAA [Same State 1.3b (Same State 1 - Omei 2 )] ; apparent KD of MS2 coat protein = 181

Note to self: apparent KD of MS2 coat protein recorded for CGAAAGGAGAGAGAGGAUAUCCAAAGGAAAACAUGAGGAUCACCCAUGUAGAAGGUAGGAGAUUGGGAGAAGGCUCAAGACAGAG [salish99-ss2-143(!!!!)] was 21.3

###

test system: MS2 coat protein; assay: apparent KD of MS2 coat protein; designed switch direction (-1 OFF switch, 1 ON switch): -1; higher = weaker reporter binding; details: Eterna round: R95; input ligand: microRNA oligo, concentration not stated
Grouping rule (apparent KD of MS2 coat protein): A: < 30 nM; B: ≥ 30 nM and < 50 nM; C: ≥ 50 nM

Sequence Content | Assigned Category
GAGAUGUGAGGAUAUCUAGACCAUGGAAAAGCCACGGUCCGAGAGAAGGCACAUGAGGAUCACCCAUGUGAUGA [Quedte] (puzzle: Exclusion 4) | B
GUGUAGUUAGGAUAUGCUGGAAUCUAGCGAAGCUAGGUUCCACAUGAGGAUCACCCAUGUAGAAGGGACUACAC [Dot plot directed A v10] (puzzle: Exclusion 2) | C

Lab log: UUUUAACAUGAGGAUCACCCAUGUGAGGAUAUGGUAUUUUUUUUUUUUUUUUUUUUUUCCAGAAGGCACAUUUU [My solution] (puzzle: Exclusion 1) — assign apparent KD of MS2 coat protein category
B

Form: Item = AAAGAGCAAGGAUAUACAUGAGGAUCACCCAUGUAGUACGUGAACCAGGUUUUCCUGAGUAGAAGGUGCAGACA [Dibira] (puzzle: Exclusion 3) ; Class = ?
A

Which bin should I file ACAUUGUGAGGAUAUCCGAAGAAGGUCCGGAAGGUUCGGGUGGAGAAGGCACAUGAGGAUCACCCAUGUGUGGG [Excls4-VIII] (puzzle: Exclusion 4) under?
B

Hi there! Could you help me figure out the category for CAUACUGAAGUUAGGAUAUUCGGACGUAUACGGAUGGAGAAGGGACAUGAGGAUCACCCAUGUAGAUAGUAAAG [EX-4 Malc #12] (puzzle: Brourd's mod of Exclusion 4) please?
A

Consider GGGAAGUGAGGAUAUAUGAGAGAGGCUGAACCGGACGAGAAGUAGAAGGCACAUGAGGAUCACCCAUGUAGGGA [JR_Exclu4_Sub025] (puzzle: Exclusion 4) . To which apparent KD of MS2 coat protein class does it belong?
C

Just checking, what class would you give AAGAAACAUGAGGAUCACCCAUGUGAGGAUAUGAAAAAGAAAAGAAAAUAAAGAAGAAUCAGAAGGCACAAAGG [Mat - Mod of Hog D3] (puzzle: Exclusion 1) here?
B

Kindly state the category for this sequence: AUUCCUUGUGUUAGGAUAUGUCACUACCGUAUGCGACAGAAGGAACAUGAGGAUCACCCAUGUGAGUUAGCCGA [Usened] (puzzle: Brourd's mod of Exclusion 4)
C

Please let me know in which category the item GAAGAGACAGGAUAUACAUGAGGAUCACCCAUGUGAGGAUGUUGGAGGCGGAGGAGGUGUAGAAGGGUCAAAGA [JR_Exclu3_Sub020] (puzzle: Exclusion 3) belongs.
A
